system: HCT-116 colon; assay: NCI tumour cell line growth inhibition, 48 h
Assay endpoint: TGI

INSERT INTO assay_data (compound, result) VALUES
  ('O=S1(=O)c2ccccc2C(Nc2ccccc2)N1c1ccccc1 (centres undefined)', '> 100 µM'),
  ('CCOC(=O)CCC(C(=O)OCC)n1nc2ccc(Nc3c(C)[n+]([O-])c4cc(F)c(OCC)cc4[n+]3[O-])cc2n1 (centres undefined)', '> 100 µM'),
  ('CCOC(=O)C1=C(C)NC2=C(C(=O)N(c3ccccc3)C2c2ccccc2)C1c1ccccc1 (centres undefined)', '31.4 µM'),
  ('CC(=O)O[C@H]1CC[C@H]2[C@@H]3CCC4=CC(=O)C=C[C@]4(O)[C@H]3CC[C@]12C', '> 100 µM'),
  ('COc1cc([N+](=O)[O-])c(OC)cc1-c1nc2sc(C)cn2c1/C(N)=N/C(=N)N', '> 100 µM'),
  ('O=C(O)c1ccc(C(O)(c2ccccc2)c2ccccc2)cc1', '> 100 µM'),
  ('COc1ccc2c(C)c(Oc3c(Cl)c(Cl)c(O)c(C#N)c3C#N)oc2c1', '> 100 µM'),
  ('CCCCCCCCCCCCCC1=C(O)C(=O)C(CC2=C(O)C(=O)C(CCCCCCCCCCCCC)=C(O)C2=O)=C(O)C1=O', '> 100 µM'),
  ('N#CC(C#N)=C1CCOc2ccc(F)cc21', '21 µM');

* * *

tested on: SK-OV-3 ovarian; experiment: NCI tumour cell line growth inhibition, 48 h
Assay endpoint: TGI

INSERT INTO results (compound, assay_endpoint, result) VALUES
  ('CC(C)(Oc1ccc(Cl)cc1)C(=O)N(C(=O)N1CCCCC1)c1ccccc1', 'TGI', '40.4 µM'),
  ('O=C(O)CC(NC(=O)/C(=C/c1ccccc1)NC(=O)c1ccccc1)C(=O)O (centres undefined)', 'TGI', '> 100 µM'),
  ('C=CC(=O)N1C[C@@H]2CCOc3c(Cl)c(-c4c(O)cccc4F)c(F)c4ncnc(c34)N2C[C@H]1C', 'TGI', '42.7 µM'),
  ('S=c1c2[nH]cnc2ncn1CCSC1=NC=NC2=NC=NC21 (centres undefined)', 'TGI', '> 100 µM'),
  ('Cc1ccc(S(=O)(=O)N2CCN(C=S)CC2)cc1', 'TGI', '> 100 µM'),
  ('CN(C)C=Nc1c2ccccc2nc2ccccc12', 'TGI', '23.4 µM'),
  ('C=C1[C@H](OCC(C)C)[C@@H](O)[C@@H](OC(=O)c2cccnc2)C(C)(C)/C=C/[C@H](C)[C@H](OC(C)=O)[C@@]2(O)C[C@@](C)(OC(C)=O)[C@H](OC(=O)c3ccccc3)[C@@H]2[C@H]1OC(C)=O', 'TGI', '> 5 µM'),
  ('N#CC1=C(N)NC(=S)NC12Nc1ccccc1S2 (centres undefined)', 'TGI', '> 100 µM'),
  ('O=c1c2ccccc2c(/C=N\NC2=NCCN2)c2oc3ccccc3n12', 'TGI', '40.8 µM');

* * *

tested on: HCC-2998 colon; assay: NCI tumour cell line growth inhibition, 48 h
Parameter: TGI. Scope: all listed entries.
Assay endpoint: TGI

INSERT INTO results (compound, result) VALUES
  ('CC(=O)OCC1OC(N2C(c3ccccc3)=CC(c3ccco3)C(C#N)=C2S)C(OC(C)=O)C(OC(C)=O)C1OC(C)=O (centres undefined)', '48.9 µM'),
  ('CC(c1ccc2c(c1)CCC1C2CC2OC23CC=CC(=O)[C@]13C)C1C[C@]2(C)O[C@]2(C)[C@H](O)O1 (some centres undefined)', '> 100 µM'),
  ('COc1ccc2c(C)c(Oc3c(Cl)c(Cl)c(O)c(C#N)c3C#N)oc2c1', '> 100 µM'),
  ('N#Cc1c(NC(=O)c2ccc(F)cc2)sc2c1CCCC2', '> 25 µM'),
  ('O=C(NC(Cc1ccc(Br)cc1)C(=O)O)c1ccc(I)cc1 (centres undefined)', '> 100 µM'),
  ('CC(C)(C)c1cc(CCCCCCCC2(CCCCCCCc3cc(C(C)(C)C)cc(C(C)(C)C)c3)OC(COCCOCCCCCC#N)C(COCCOCCCCCC#N)O2)cc(C(C)(C)C)c1 (centres undefined)', '> 100 µM'),
  ('CNC1c2ccccc2C(=O)c2cc3c(cc21)OCCOCCOCCOCCO3 (centres undefined)', '> 100 µM'),
  ('NS(=O)(=O)c1ccc(NC(=O)Cc2nc3ccccc3s2)cc1', '35.8 µM'),
  ('Cc1cc(N2CCCCC2)nc(NC2CCCC(Nc3ccnc4cc(Cl)ccc34)C2)n1 (centres undefined)', '3.4 µM'),
  ('Cn1c(=O)c2nc3c(=O)n(C)c(=O)n(CC(N)=O)c3nc2n(C)c1=O', '> 100 µM'),
  ('CC1C(=O)CC(c2cccs2)N(N=O)C1c1cccs1 (centres undefined)', '> 100 µM'),
  ('Cc1c2c(nc3ccccc13)C(=O)c1cccnc1C2=O', '> 100 µM'),
  ('O=c1cnnc(N/N=C/c2ccccc2O)[nH]1', '> 100 µM'),
  ('C[C@@H]1C(=O)O[C@H]1[C@H](O)CO', '> 100 µM'),
  ('C/C=C(/C)C(=O)O[C@H]1[C@H]2[C@@H]([C@@H](OC(C)=O)[C@H](C)C(=O)[C@@]34C[C@@H](C)C(=O)[C@]3(/C=C(\C)[C@H]1OC(C)=O)O4)C2(C)C', '8.53 µM'),
  ('NC1CCCCC1N.O=C1C=C/C(=C(/c2ccc(O)c(Br)c2)c2ccccc2S(=O)(=O)[O-])C=C1Br.O=C1C=C/C(=C(/c2ccc(O)c(Br)c2)c2ccccc2S(=O)(=O)[O-])C=C1Br.[Pt+4]', '> 100 µM'),
  ('CC(C)(c1ccccc1)c1cc(O)c(C(C)(C)c2ccccc2)cc1O', '12.8 µM'),
  ('COc1ccc(N2C(=O)C3c4[nH]c5ccccc5c4C4CC(C)(C)CC(C)(C)C4C3C2=O)cc1 (centres undefined)', '> 100 µM'),
  ('C/C(=N\OCC(O)CNCCSCc1ccccc1)c1ccccc1Cl (centres undefined)', '40.9 µM');

* * *

tested on: NCI-H460 lung; assay: NCI tumour cell line growth inhibition, 48 h
Assay endpoint: TGI

INSERT INTO assay_data (compound, assay_endpoint, result) VALUES
  ('C/C(N)=C/C(=O)c1[nH]c(C(=O)O)cc1C1CCN(Cc2ccccc2)C1=O (stereo not given)', 'TGI', '> 100 µM'),
  ('CC(=O)OCC1OC(N2C(c3ccccc3)=CC(c3ccco3)C(C#N)=C2S)C(OC(C)=O)C(OC(C)=O)C1OC(C)=O (stereo not given)', 'TGI', '> 62.2 µM'),
  ('COC(=O)c1ccccc1CC1Cc2cc3c(cc2C1=O)CCC3 (stereo not given)', 'TGI', '> 71.4 µM'),
  ('CNC(=O)C1(C#N)C(c2ccccc2)C(C#N)(C(=O)NC)C1c1ccccc1 (stereo not given)', 'TGI', '> 100 µM'),
  ('CCCCCCn1c(SC)nc(COC(=O)NC)c1COC(=O)NC', 'TGI', '37.3 µM'),
  ('COc1ccc2[nH]c3c(c2c1)CC(=O)N1CCCC(CC3O)C1 (stereo not given)', 'TGI', '> 100 µM'),
  ('O=c1cnnc(N/N=C/c2ccccc2O)[nH]1', 'TGI', '> 100 µM'),
  ('Cc1cc(C)nc(NS(=O)(=O)c2ccc(Nc3c4ccccc4nc4c(C(=O)NC(CO)(CO)CO)cccc34)cc2)n1', 'TGI', '35.3 µM'),
  ('COc1cc(N2C(=O)[C@H](c3ccccc3)C2c2ccc(SC)cc2)cc(OC)c1OC (stereo not given in full)', 'TGI', '> 100 µM'),
  ('CCC1(CC)C(=O)N(C(=O)c2ccccc2)N(C(=O)c2ccc(Cl)cc2)C1=O', 'TGI', '> 75 µM');

* * *

tested on: RPMI-8226 leukemia; assay: NCI tumour cell line growth inhibition, 48 h
Assay endpoint: GI50

INSERT INTO assay_data (compound, assay_endpoint, result) VALUES
  ('COc1ccc(C(=NN=C(N)N)c2ccc(OC)cc2)cc1', 'GI50', '5.46 µM'),
  ('COc1ccc(CCN(CC(=O)N(CC(N)=O)C2CCC[C@@H]2OCc2ccccc2)C(=O)CN(C(=O)CN(CCc2ccc(Cl)cc2)C(=O)CN(C(=O)CN(C)Cc2ccccc2F)[C@H](C)C2CCCCC2)[C@H](C)C2CCCCC2)cc1OC (some centres not stated)', 'GI50', '1.19 µM'),
  ('CC1(C)N=C(N)N=C(N)N1c1ccc(OCCCNC(=O)Nc2cccc(S(=O)(=O)F)c2)c(Cl)c1', 'GI50', '41.4 µM'),
  ('Cc1cc(N2CCCCC2)nc(NC2CCCC(Nc3ccnc4cc(Cl)ccc34)C2)n1 (configuration not stated)', 'GI50', '0.472 µM'),
  ('NC1CCCCC1N.O=C1C=C/C(=C(/c2ccc(O)c(Br)c2)c2ccccc2S(=O)(=O)[O-])C=C1Br.O=C1C=C/C(=C(/c2ccc(O)c(Br)c2)c2ccccc2S(=O)(=O)[O-])C=C1Br.[Pt+4]', 'GI50', '6.29 µM'),
  ('CC(=O)CC/C=C(\C)[C@H](O)[C@H](C)C(=O)O[C@H]1C[C@H](C)C=C2C=C[C@@]3(C)O[C@@H](O)CC(=O)[C@]3(C)[C@H]21', 'GI50', '0.308 µM'),
  ('N#CC(C#N)=C1CCOc2ccc(F)cc21', 'GI50', '17.4 µM');
